Taken from ChEMBL document CHEMBL1125419.

- target_or_test_system: Delta-type opioid receptor (Rattus norvegicus, UniProt P33533)
- Sequence (P33533 whole entry): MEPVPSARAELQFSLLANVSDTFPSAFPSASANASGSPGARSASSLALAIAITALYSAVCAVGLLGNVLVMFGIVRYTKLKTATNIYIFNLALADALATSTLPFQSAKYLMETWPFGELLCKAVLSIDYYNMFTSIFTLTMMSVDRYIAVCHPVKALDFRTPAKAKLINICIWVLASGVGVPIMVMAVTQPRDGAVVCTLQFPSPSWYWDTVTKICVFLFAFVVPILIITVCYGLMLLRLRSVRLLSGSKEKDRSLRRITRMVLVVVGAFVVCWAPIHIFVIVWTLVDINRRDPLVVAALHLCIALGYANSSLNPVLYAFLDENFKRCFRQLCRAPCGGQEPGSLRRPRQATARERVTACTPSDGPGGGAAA
- test_details: Inhibition of [3H]DPDPE binding to Opioid receptor delta 1
quantity: pKi
Scale: negative log10 of molar concentration, which is what pKi denotes.

In the examples that follow, each entry is paired with its recorded pKi.
input_smiles=CSCC[C@H](NC(=O)[C@H](CC(C)C)NC(=O)[C@H](Cc1c[nH]cn1)NC(=O)[C@H](Cc1ccccc1)NC(=O)[C@@H](CCSC)NC(=O)[C@@H](N)Cc1ccc(O)cc1)C(=O)N[C@H](CC(=O)O)C(N)=O target_or_test_system="Delta-type opioid receptor (Rattus norvegicus, UniProt P33533)" numeric_readout=9.27
input_smiles=CSCC[C@H](NC(=O)[C@@H](CC(C)C)NC(=O)[C@H](Cc1ccccc1)NC(=O)[C@@H](CCSC)NC(=O)[C@@H](N)Cc1ccc(O)cc1)C(=O)N[C@@H](CC(=O)O)C(N)=O target_or_test_system="Delta-type opioid receptor (Rattus norvegicus, UniProt P33533)" numeric_readout=6.92
input_smiles=CSCC[C@H](NC(=O)[C@H](CC(C)C)NC(=O)[C@H](Cc1ccccc1)NC(=O)[C@@H](C)NC(=O)[C@@H](N)Cc1ccc(O)cc1)C(=O)N[C@@H](CC(=O)O)C(N)=O target_or_test_system="Delta-type opioid receptor (Rattus norvegicus, UniProt P33533)" numeric_readout=7.86
input_smiles=CSCC[C@H](NC(=O)[C@H](CC(C)C)NC(=O)[C@H](Cc1ccccc1)NC(=O)[C@@H](CCSC)NC(=O)[C@@H](N)Cc1ccc(O)cc1)C(=O)N[C@H](CC(=O)O)C(N)=O target_or_test_system="Delta-type opioid receptor (Rattus norvegicus, UniProt P33533)" numeric_readout=8.02

Here is the next item to consider.
# get_value(readout='pKi', item= CSCC[C@H](NC(=O)[C@H](CC(C)C)NC(=O)[C@H](Cc1ccccc1)NC(=O)[C@@H](CCSC)NC(=O)[C@@H](N)Cc1ccc(O)cc1)C(=O)N[C@@H](CC(=O)O)C(N)=O ) 7.90
